- Tested on: Streptococcus pneumoniae Group D X66
- Format: cell-based
- Condition info: agar dilution; 2, 5, 17, 22 median of three tests; paired values two experiments
Metric name: MIC Streptococcus pneumoniae Group D X66 (µg/mL)
Answer format: numeric, µg/mL implied, no suffix.

Please review the following examples before continuing.
Compound: CCCCCCCCCCC(=O)N[C@@H](Cc1c[nH]c2ccccc12)C(=O)N[C@@H](CC(N)=O)C(=O)N[C@@H](CC(=O)O)C(=O)N[C@@H]1C(=O)NCC(=O)N[C@@H](CCCN)C(=O)N[C@@H](CC(=O)O)C(=O)N[C@H](C)C(=O)N[C@@H](CC(=O)O)C(=O)NCC(=O)N[C@H](CO)C(=O)N[C@@H]([C@H](C)CC(=O)O)C(=O)N[C@@H](CC(=O)c2ccccc2N)C(=O)O[C@@H]1C [Compound 5]
MIC Streptococcus pneumoniae Group D X66 (µg/mL): 2
//
Compound: CCCCCCCCCCCCCCCC(=O)N[C@@H](Cc1c[nH]c2ccccc12)C(=O)N[C@@H](CC(N)=O)C(=O)N[C@@H](CC(=O)O)C(=O)N[C@@H]1C(=O)NCC(=O)N[C@@H](CCCN)C(=O)N[C@@H](CC(=O)O)C(=O)N[C@H](C)C(=O)N[C@@H](CC(=O)O)C(=O)NCC(=O)N[C@H](CO)C(=O)N[C@@H]([C@H](C)CC(=O)O)C(=O)N[C@@H](CC(=O)c2ccccc2N)C(=O)O[C@@H]1C [Compound 10]
MIC Streptococcus pneumoniae Group D X66 (µg/mL): 2
//
Compound: CCCCCCC(=O)N[C@@H](Cc1c[nH]c2ccccc12)C(=O)N[C@@H](CC(N)=O)C(=O)N[C@@H](CC(=O)O)C(=O)N[C@@H]1C(=O)NCC(=O)N[C@@H](CCCN)C(=O)N[C@@H](CC(=O)O)C(=O)N[C@H](C)C(=O)N[C@@H](CC(=O)O)C(=O)NCC(=O)N[C@H](CO)C(=O)N[C@@H]([C@H](C)CC(=O)O)C(=O)N[C@@H](CC(=O)c2ccccc2N)C(=O)O[C@@H]1C [Compound 1]
MIC Streptococcus pneumoniae Group D X66 (µg/mL): 128

Suppose we examine the compound CCCCCCCCCCCCCCC(=O)N[C@@H](Cc1c[nH]c2ccccc12)C(=O)N[C@@H](CC(N)=O)C(=O)N[C@@H](CC(=O)O)C(=O)N[C@@H]1C(=O)NCC(=O)N[C@@H](CCCN)C(=O)N[C@@H](CC(=O)O)C(=O)N[C@H](C)C(=O)N[C@@H](CC(=O)O)C(=O)NCC(=O)N[C@H](CO)C(=O)N[C@@H]([C@H](C)CC(=O)O)C(=O)N[C@@H](CC(=O)c2ccccc2N)C(=O)O[C@@H]1C [Compound 9] ; what MIC Streptococcus pneumoniae Group D X66 value has been reported?
2

Suppose we examine the compound CCCCCCCCCCCCC(=O)N[C@@H](Cc1c[nH]c2ccccc12)C(=O)N[C@@H](CC(N)=O)C(=O)N[C@@H](CC(=O)O)C(=O)N[C@@H]1C(=O)NCC(=O)N[C@@H](CCCN)C(=O)N[C@@H](CC(=O)O)C(=O)N[C@H](C)C(=O)N[C@@H](CC(=O)O)C(=O)NCC(=O)N[C@H](CO)C(=O)N[C@@H]([C@H](C)CC(=O)O)C(=O)N[C@@H](CC(=O)c2ccccc2N)C(=O)O[C@@H]1C [Compound 7] ; what MIC Streptococcus pneumoniae Group D X66 value has been reported?
0.03

---

- System: Bacillus subtilis ATCC 6633
- Assay details: agar-plate disc-diffusion test
- Condition info: suspended in water at 1 mg/ml; 7 mm disc; 24-48 hours at 25-37° C.
Metric name: Size of Zone of Inhibition (mm) Bacillus subtilis ATCC 6633
Answer format: numeric, mm implied, no suffix.

Compound: CCC(C)CCCCCCC(=O)N[C@@H](Cc1c[nH]c2ccccc12)C(=O)N[C@@H](CC(N)=O)C(=O)N[C@@H](CC(=O)O)C(=O)N[C@@H]1C(=O)NCC(=O)N[C@@H](CCCNC(C)=O)C(=O)N[C@@H](CC(=O)O)C(=O)N[C@H](C)C(=O)N[C@@H](CC(=O)O)C(=O)NCC(=O)N[C@H](CO)C(=O)N[C@@H]([C@H](C)CC(=O)O)C(=O)N[C@@H](CC(=O)c2ccccc2N)C(=O)O[C@@H]1C (some centres unmarked)
Measured on: Bacillus subtilis ATCC 6633
Unit of measure: mm
Observed measurement: 18

Turning to the following compound.
Suppose we examine the compound `CCCCCCCCCCCCCCCC(=O)N[C@@H](Cc1c[nH]c2ccccc12)C(=O)N[C@@H](CC(N)=O)C(=O)N[C@@H](CC(=O)O)C(=O)N[C@@H]1C(=O)NCC(=O)N[C@@H](CCCN)C(=O)N[C@@H](CC(=O)O)C(=O)N[C@H](C)C(=O)N[C@@H](CC(=O)O)C(=O)NCC(=O)N[C@H](CO)C(=O)N[C@@H]([C@H](C)CC(=O)O)C(=O)N[C@@H](CC(=O)c2ccccc2N)C(=O)O[C@@H]1C` ; what Size of Zone of Inhibition (mm) Bacillus subtilis ATCC 6633 value has been reported?
17

---

Recorded Size of Zone of Inhibition (mm) Bacillus subtilis ATCC 6633 for the following compounds
- Test system: Bacillus subtilis ATCC 6633
- Assay details: agar-plate disc-diffusion test
- Condition info: suspended in water at 1 mg/ml; 7 mm disc; 24-48 hours at 25-37° C.
Answer format: numeric, mm implied, no suffix.

Please review the following examples before continuing.
Chemical smiles: CCCCCCCCCCCCCC(=O)N[C@@H](Cc1c[nH]c2ccccc12)C(=O)N[C@@H](CC(N)=O)C(=O)N[C@@H](CC(=O)O)C(=O)N[C@@H]1C(=O)NCC(=O)N[C@@H](CCCN)C(=O)N[C@@H](CC(=O)O)C(=O)N[C@H](C)C(=O)N[C@@H](CC(=O)O)C(=O)NCC(=O)N[C@H](CO)C(=O)N[C@@H]([C@H](C)CC(=O)O)C(=O)N[C@@H](CC(=O)c2ccccc2N)C(=O)O[C@@H]1C
Measured on: Bacillus subtilis ATCC 6633
Unit of measure: mm
Observed measurement: 21

Chemical smiles: CCCCCCCCCCCCC(=O)N[C@@H](Cc1c[nH]c2ccccc12)C(=O)N[C@@H](CC(N)=O)C(=O)N[C@@H](CC(=O)O)C(=O)N[C@@H]1C(=O)NCC(=O)N[C@@H](CCCN)C(=O)N[C@@H](CC(=O)O)C(=O)N[C@H](C)C(=O)N[C@@H](CC(=O)O)C(=O)NCC(=O)N[C@H](CO)C(=O)N[C@@H]([C@H](C)CC(=O)O)C(=O)N[C@@H](CC(=O)c2ccccc2N)C(=O)O[C@@H]1C
Measured on: Bacillus subtilis ATCC 6633
Unit of measure: mm
Observed measurement: 17

Turning to the following compound.
Suppose we examine the compound `CCCCCCCCCCCC(=O)N[C@@H](Cc1c[nH]c2ccccc12)C(=O)N[C@@H](CC(N)=O)C(=O)N[C@@H](CC(=O)O)C(=O)N[C@@H]1C(=O)NCC(=O)N[C@@H](CCCN)C(=O)N[C@@H](CC(=O)O)C(=O)N[C@H](C)C(=O)N[C@@H](CC(=O)O)C(=O)NCC(=O)N[C@H](CO)C(=O)N[C@@H]([C@H](C)CC(=O)O)C(=O)N[C@@H](CC(=O)c2ccccc2N)C(=O)O[C@@H]1C` ; what Size of Zone of Inhibition (mm) Bacillus subtilis ATCC 6633 value has been reported?
20

---

Recorded ED50 Staphylococcus aureus Subcutaneous for the following compounds
- Tested on: Staphylococcus aureus
- Assay details: in vivo activity against experimental bacterial infection (ED50)
- Condition info: mice; two doses subcutaneously; dose protecting fifty percent of test animals
Answer format: numeric, mg/kg × 2 implied, no suffix.

Please review the following examples before continuing.
Compound: CCCCCCCCCCCCN[C@@H](Cc1c[nH]c2ccccc12)C(=O)N[C@@H](CC(N)=O)C(=O)N[C@@H](CC(=O)O)C(=O)N[C@@H]1C(=O)NCC(=O)N[C@@H](CCCN)C(=O)N[C@@H](CC(=O)O)C(=O)N[C@H](C)C(=O)N[C@@H](CC(=O)O)C(=O)NCC(=O)N[C@H](CO)C(=O)N[C@@H]([C@H](C)CC(=O)O)C(=O)N[C@@H](CC(=O)c2ccccc2N)C(=O)O[C@@H]1C [Compound 22, NTrp -(n-dodecyl)-A-21978C nucleus]
ED50 Staphylococcus aureus Subcutaneous, mg/kg × 2: 1.25
--
Compound: CCC(C)CCCCCCC(=O)N[C@@H](Cc1c[nH]c2ccccc12)C(=O)N[C@@H](CC(N)=O)C(=O)N[C@@H](CC(=O)O)C(=O)N[C@@H]1C(=O)NCC(=O)N[C@@H](CCCNC(C)=O)C(=O)N[C@@H](CC(=O)O)C(=O)N[C@H](C)C(=O)N[C@@H](CC(=O)O)C(=O)NCC(=O)N[C@H](CO)C(=O)N[C@@H]([C@H](C)CC(=O)O)C(=O)N[C@@H](CC(=O)c2ccccc2N)C(=O)O[C@@H]1C (some centres unmarked)
ED50 Staphylococcus aureus Subcutaneous, mg/kg × 2: 1.3
--
Compound: CCC(C)CCCCCCC(=O)N[C@@H](Cc1c[nH]c2ccccc12)C(=O)N[C@@H](CC(N)=O)C(=O)N[C@@H](CC(=O)O)C(=O)N[C@@H]1C(=O)NCC(=O)N[C@@H](CCCNC(=O)CCC(=O)O)C(=O)N[C@@H](CC(=O)O)C(=O)N[C@H](C)C(=O)N[C@@H](CC(=O)O)C(=O)NCC(=O)N[C@H](CO)C(=O)N[C@@H]([C@H](C)CC(=O)O)C(=O)N[C@@H](CC(=O)c2ccccc2N)C(=O)O[C@@H]1C (some centres unmarked)
ED50 Staphylococcus aureus Subcutaneous, mg/kg × 2: 6.27

Turning to the following compound.
Look up ED50 Staphylococcus aureus Subcutaneous with Staphylococcus aureus for this compound: `CCCCCCCCCCCCC(=O)N[C@@H](Cc1c[nH]c2ccccc12)C(=O)N[C@@H](CC(N)=O)C(=O)N[C@@H](CC(=O)O)C(=O)N[C@@H]1C(=O)NCC(=O)N[C@@H](CCCN)C(=O)N[C@@H](CC(=O)O)C(=O)N[C@H](C)C(=O)N[C@@H](CC(=O)O)C(=O)NCC(=O)N[C@H](CO)C(=O)N[C@@H]([C@H](C)CC(=O)O)C(=O)N[C@@H](CC(=O)c2ccccc2N)C(=O)O[C@@H]1C`
0.54
